# Test System: human AT2R fused to Cb23 (Homo sapiens, UniProt P50052)
# Sequence (P50052 whole entry, looked up, the tested form may be a part): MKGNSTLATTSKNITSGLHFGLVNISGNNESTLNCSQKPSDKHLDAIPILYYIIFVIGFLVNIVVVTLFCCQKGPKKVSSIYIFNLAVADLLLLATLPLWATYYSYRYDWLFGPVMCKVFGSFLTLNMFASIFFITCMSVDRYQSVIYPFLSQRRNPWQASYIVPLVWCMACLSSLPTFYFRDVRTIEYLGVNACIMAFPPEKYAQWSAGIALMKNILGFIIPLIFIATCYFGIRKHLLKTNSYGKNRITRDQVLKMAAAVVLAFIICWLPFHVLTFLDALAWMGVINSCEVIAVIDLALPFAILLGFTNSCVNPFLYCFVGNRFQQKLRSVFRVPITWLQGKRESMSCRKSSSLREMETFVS
# Method Notes: Radioligand binding assay, displacement of 125I-[Sar1, Ile8]-Angiotensin II, hAT2R Cb23
# Test Settings: displacement of 125I-[Sar1, Ile8]-Angiotensin II, human AT2R fused to Cb23, HEK-293 cell membrane preparations; read-out: Binding affinity on hAT2R_Cb23 IC50
Measured Endpoint: IC50 (µM)

INSERT INTO measurements (compound, numeric_readout) VALUES
  ('COc1cnc(CN2CCN(c3cc(CC(C)C)cc(F)c3-c3nn[nH]n3)CC2)cc1OC [Compound A-207]', 1.21),
  ('Cc1cnnc(CN2CCN(c3cc(CC(C)C)ccc3-c3nn[nH]n3)CC2)c1 [Compound A-112]', 0.697),
  ('CC(C)Oc1ccc(-c2nn[nH]n2)c(N2CCN(Cc3nc4ccccc4n3C)CC2)c1 [Compound A-24]', 7.14),
  ('CC(C)Oc1cc(F)c(-c2nn[nH]n2)c(N2CCN(Cc3nc4ccccc4c(=O)[nH]3)CC2)c1 [Compound A-151]', 6.79);
